Tested on: NCI-H522 lung
experimental-protocol: NCI tumour cell line growth inhibition, 48 h
observed-property: TGI

INSERT INTO assay_data (chemical_smiles, value_observed) VALUES
  ('CC(C)(O)CO/N=C1\C(c2c(O)[nH]c3ccccc23)=Nc2ccccc21', '> 47.8 µM'),
  ('CC(=O)N1CC(=O)NC1=S', '> 100 µM'),
  ('COc1nc(N)nc2c1ncn2[C@@H]1O[C@H](CO)[C@@H](O)[C@@H]1O', '> 100 µM');

We now examine a further molecule.
q: So what's the measured TGI for this one? NC(=NCCN1CCCCCCC1)NO
a: > 100 µM

###

Tested on: SK-MEL-5 melanoma
experimental-protocol: NCI tumour cell line growth inhibition, 48 h
TGI values, listed per item

INSERT INTO measurements (compound, value_observed) VALUES
  ('CC1=CC(=O)[C@@H](O)[C@]2(C)[C@H]3[C@@]4(O)OC[C@@]35[C@@H](C[C@@H]12)OC(=O)C(OC(=O)CC1=CCCC1)[C@H]5[C@@H](C)[C@H]4O (some centres undefined)', '0.0713 µM'),
  ('COc1cc(C2CC(c3ccccc3)=NN2C(C)=O)cc(OC)c1OC (centres undefined)', '> 100 µM'),
  ('Cc1cc2cc3cc(C)c(N)cc3[n+](C)c2cc1N', '2.08 µM'),
  ('COc1cc(C2S/C(=C/c3ccccc3)C(=O)N2c2cc(Cl)c(Cl)cc2Cl)cc(OC)c1OC (centres undefined)', '> 100 µM'),
  ('COC(=O)C1=C(CS(=O)c2ccc([N+](=O)[O-])cc2[N+](=O)[O-])ON(C)C1c1ccccc1 (centres undefined)', '> 100 µM');

q: So what's the measured TGI for this one? CCOC(=O)N/N=C(\Cc1ccc([N+](=O)[O-])cc1)OCC
a: > 100 µM

q: Repeat with COC(=O)c1ccc(COC(=O)N2C=CCC2C(=O)O)cc1 (centres undefined)
a: > 100 µM

q: Repeat with CSc1ccc(-c2cc(-c3nc4ccccc4[nH]3)nc(N)c2C#N)cc1
a: 29 µM

q: Repeat with COc1cc([C@@H]2c3cc4c(cc3[C@@H](OC3OC5COC(C)OC5C(OC(=O)CN5CCN(C)CC5)C3OC(=O)CN3CCN(C)CC3)C3COC(=O)[C@@H]32)OCO4)cc(OC)c1OC(=O)CN1CCN(C)CC1 (some centres undefined)
a: > 100 µM

###

Test system: SF-295 CNS
experimental-protocol: NCI tumour cell line growth inhibition, 48 h
observed-property: TGI

INSERT INTO assay_data (molecule, system_tested, value_observed) VALUES
  ('CCC1CC(C)=CCN1S(=O)(=O)c1ccc(C)cc1 (stereo not drawn)', 'SF-295 CNS', '> 100 µM'),
  ('NC(=O)CCC(CCC(N)=O)(CCC(N)=O)[N+](=O)[O-]', 'SF-295 CNS', '> 100 µM'),
  ('CC1OC(OC2C(CO)OC(O[C@H]3CC[C@@]4(C)C(=CC[C@H]5[C@@H]6C[C@@H]7O[C@](O)(CC[C@H](CO)COC8OC(CO)C(O)C(O)C8O)[C@@H](C)[C@@H]7[C@@]6(C)CC[C@@H]54)C3)C(OC3OC(C)C(O)C(O)C3O)C2O)C(O)C(O)C1O (stereo partly drawn)', 'SF-295 CNS', '> 100 µM');

q: So what's the measured TGI for this one? Cc1ccc([N+](=O)[O-])cc1S(=O)(=O)Nc1ccc(C2=NN(C(=O)c3ccccc3)C(c3cccs3)C2)cc1 (stereo not drawn)
a: > 100 µM

q: Repeat with Cc1c2cc[n+](C)cc2c(C)c2c1[nH]c1ccc(Cl)cc12
a: 4.37 µM

q: Repeat with COc1ccc(-c2nn(-c3cccc(NC(=O)c4cccc(C(F)(F)F)c4)c3)cc2-c2ccncc2)cc1Cl
a: 9.91 µM

q: Repeat with O=C1c2cc([N+](=O)[O-])cc3cc([N+](=O)[O-])cc(c23)C(=O)N1CCCNCCNCCCN1C(=O)c2cc([N+](=O)[O-])cc3cc([N+](=O)[O-])cc(c23)C1=O
a: 8 µM

q: Repeat with CC(=O)C1=C(C)N2C(=NC3=C(CCc4ccccc43)C2c2cccc(Br)c2)S1 (stereo not drawn)
a: > 100 µM

###

TGI values, listed per item
Test system: MDA-MB-231 breast
experimental-protocol: NCI tumour cell line growth inhibition, 48 h
Write it as a number; the unit µM goes unstated.

INSERT INTO measurements (compound, unit_abbreviation, value_observed) VALUES
  ('N=c1n(Cc2ccccc2)c(N)cc(=O)n1Cc1ccccc1', 'µM', 42.5);

We now examine a further compound.
q: So what's the measured TGI for this one? Cc1nn(-c2ccccc2)c2nc3c(nc12)C1=NCCN1C(c1ccc(Cl)cc1)N3 (stereo not given)
a: 4.95

###

System: ACHN renal
experimental-protocol: NCI tumour cell line growth inhibition, 48 h
TGI values, listed per item

Past entries and their recorded results:
INSERT INTO measurements (compound, value_observed) VALUES
  ('CCOC(=O)C(=O)Nc1c(CC)cccc1C(C)CC (stereo not given)', '> 100 µM'),
  ('N=c1n(Cc2ccccc2)c(N)cc(=O)n1Cc1ccccc1', '5.25 µM'),
  ('N#C/C(=C1C=C/C(=N\O)C(Cl)=C\1)c1ccccc1', '11.6 µM'),
  ('CC[C@@H]1CC[C@@H]2[C@H](CC[C@]3(C)[C@@H](O)CC[C@@H]23)[C@H]1CO', '> 100 µM'),
  ('COc1ccc2c(c1)CCN1CCCc3ccc(OC)cc3C21 (stereo not given)', '> 100 µM');

q: So what's the measured TGI for this one? CC(=O)N1CC(=O)NC1=S
a: > 100 µM

q: Repeat with Cc1coc2c1C(=O)C(=O)c1c-2ccc2c1CCCC2(C)C
a: > 100 µM

q: Repeat with CCCc1nc(NC#N)nc(C(=O)NC23CC4CC(CC(C4)C2)C3)c1C
a: > 100 µM

q: Repeat with O=C(O)CP(=O)(O)O
a: > 100 µM

q: Repeat with Cc1ccc(C(=O)C#Cc2c[nH]c(=O)[nH]c2=O)cc1
a: 29 µM

###

Test system: OVCAR-3 ovarian
experimental-protocol: NCI tumour cell line growth inhibition, 48 h
TGI values, listed per item
Write it as a number; the unit µM goes unstated.

Past entries and their recorded results:
INSERT INTO assay_data (compound, system_tested, observed_property, unit_abbreviation, value_observed) VALUES
  ('Cc1sc(NC2=NC(=O)/C(=C\c3ccccc3)S2)nc1-c1nc(NC2=NC(=O)/C(=C\c3ccccc3)S2)sc1C', 'OVCAR-3 ovarian', 'TGI', 'µM', 29.1),
  ('CC(=O)c1ccc(NC(=O)C(=O)C(C(=O)c2ccc(Cl)c(Cl)c2)C2OC(=O)c3ccccc32)cc1 (centres undefined)', 'OVCAR-3 ovarian', 'TGI', 'µM', 42.6),
  ('N#CCCOCN(CO)c1nc(N(CO)COCCC#N)nc(N(CO)COCCC#N)n1', 'OVCAR-3 ovarian', 'TGI', 'µM', 59.3),
  ('O=C(NC1CCCCC1)NS(=O)(=O)c1ccc(-n2nc3c(c2-c2ccc(Cl)cc2)Cc2ccccc2-3)cc1', 'OVCAR-3 ovarian', 'TGI', 'µM', 28.8),
  ('Cc1ccc2[nH]c3c(c2c1)CCC/C3=N/N=C(N)N', 'OVCAR-3 ovarian', 'TGI', 'µM', 8.21);

q: So what's the measured TGI for this one? O=C(Nc1ccc(OCc2nnc(-c3ccccc3)o2)c(F)c1)Nc1ccc(Cl)c(C(F)(F)F)c1
a: 7.25

q: Repeat with CCC1c2[nH]c3ccccc3c2C[C@H]2C(=O)NC(CCCCNC(=O)OC(C)(C)C)C(=O)N12 (some centres undefined)
a: 63.4

q: Repeat with CNCCCNC1(c2cc3ccccc3s2)CCCCC1
a: 25.4

###

TGI values, listed per item
Test system: SR leukemia
experimental-protocol: NCI tumour cell line growth inhibition, 48 h

INSERT INTO results (compound, value_observed) VALUES
  ('CC1=CC(=O)c2c(C=O)c(O)c(O)c(C(C)C)c2C1=O', '> 74.4 µM');

q: So what's the measured TGI for this one? Cc1ccc2ccc3ccc(C)nc3c2n1
a: > 100 µM

q: Repeat with COC(=O)C1(Cc2cccc(C)c2)Cc2c(C)cccc2C1=O (stereo unspecified)
a: > 100 µM

q: Repeat with C=C(C)[C@@H]1CCC2=C[C@H](OC2=O)[C@@]2(C)C[C@@H]2C(=O)/C=C(/C)C(=O)[C@H]1OC(C)=O
a: > 37.8 µM

q: Repeat with O=c1c2cc(-c3ccccc3)cnc2sn1-c1ccc(Oc2ccccc2)cc1
a: > 100 µM

q: Repeat with Cc1ccc2c(c1)C(C1Cc3cccc(C)c3C1=O)OC2=O (stereo unspecified)
a: > 100 µM
